Test: Pharmacokinetic assessment in C57BL/6 healthy wild-type mice (i.p.)
Type: in vivo, mouse
Settings: male, mouse, liver, ip; C57BL/6 mice, 10 mg/kg i.p., 7 h; read-out: Liver concentration of administered compound
Counter-ions that a name gives are not always drawn.
Listed here: items and their measured concentration at 7 h.

{"columns": ["molecule", "concentration at 7 h, ng/g"],
 "data": [
  ["C[C@H]1Oc2ccc(F)cc2N(CCOC(=O)NCCNC(=O)[C@@H](N)CCC(=O)O)C(=O)[C@H]1NC(=O)[C@@](C)(O)C(=O)NCC(F)(F)C(F)(F)F [Compound 15b, hydrochloride]", 5.78],
  ["CC(=O)N[C@@H](CCC(=O)O)C(=O)NCCNC(=O)OCCN1C(=O)[C@@H](NC(=O)[C@@](C)(O)C(=O)NCC(F)(F)C(F)(F)F)[C@@H](C)Oc2ccc(F)cc21 [Compound 15a]", 737],
  ["CC(=O)N[C@@H](CCC(=O)NCCNC(=O)OCCN1C(=O)[C@@H](NC(=O)[C@@](C)(O)C(=O)NCC(F)(F)C(F)(F)F)[C@@H](C)Oc2ccc(F)cc21)C(=O)O [Compound 13a]", 22.3],
  ["C[C@H]1Oc2ccc(F)cc2N(CCOC(=O)NCCN)C(=O)[C@H]1NC(=O)[C@@](C)(O)C(=O)NCC(F)(F)C(F)(F)F.Cl [Compound 11a, hydrochloride]", 1200]
]}

* * *

Assay: Pharmacokinetic assessment in male Wistar rats (i.v.)
Type: in vivo, rat
Details: rat, liver, iv, 8 3.5 mg/kg i.v., 0.25 h, read-out: Liver concentration of 8
property: concentration at 0.25 h (ng/g)

{"columns": ["compound", "property", "data.value"],
 "data": [
  ["C[C@H]1Oc2ccc(F)cc2N(CCO)C(=O)[C@H]1NC(=O)[C@@](C)(O)C(=O)NCC(F)(F)C(F)(F)F [Compound 8]", "concentration at 0.25 h", 3100]
]}

* * *

Experiment: Distribution in plasma, liver and kidney in the aristolochic acid mouse model (repeated i.p.)
Assay type: in vivo
Conditions: male, C57BL/6, mouse, kidney, ip, 30 mg/kg, mice, 13a 30 mg/kg b.i.d. i.p. repeated, without AA (Table 6B), 13 h; read-out: Kidney concentration of 13a

{"columns": ["compound", "concentration at 13 h"],
 "data": [
  ["CC(=O)N[C@@H](CCC(=O)NCCNC(=O)OCCN1C(=O)[C@@H](NC(=O)[C@@](C)(O)C(=O)NCC(F)(F)C(F)(F)F)[C@@H](C)Oc2ccc(F)cc21)C(=O)O [Compound 13a]", "11 ng/g"]
]}

* * *

Test: Pharmacokinetic assessment in male Wistar rats (i.v.)
Type: in vivo, rat
Conditions: rat, liver, iv, 8 3.5 mg/kg i.v., 7 h, read-out: Liver concentration of 8

{"columns": ["structure.as.smiles", "concentration at 7 h [ng/g]"],
 "data": [
  ["C[C@H]1Oc2ccc(F)cc2N(CCO)C(=O)[C@H]1NC(=O)[C@@](C)(O)C(=O)NCC(F)(F)C(F)(F)F", 116]
]}

* * *

Test: Pharmacokinetic assessment in male Wistar rats (i.v.)
Assay type: in vivo, rat
Details: rat, plasma, intravenous, 13c 1.5 mg/kg i.v., 0.25 h, read-out: Plasma concentration of 13c
property: concentration at 0.25 h (ng/mL)

{"columns": ["compound", "property", "data.value"],
 "data": [
  ["CC(=O)N[C@@H](CCC(=O)NCCOC(=O)OCCN1C(=O)[C@@H](NC(=O)[C@@](C)(O)C(=O)NCC(F)(F)C(F)(F)F)[C@@H](C)Oc2ccc(F)cc21)C(=O)O [Compound 13c]", "concentration at 0.25 h", 53]
]}
